Reference for the values: paper PMC4336329

Biological target: human ether-à-go-go-related gene (hERG) potassium channel (human, UniProt Q12809);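 also: peak tail current of the secondary pulse compared with the same well before compound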
Sequence (Q12809 whole entry, looked up): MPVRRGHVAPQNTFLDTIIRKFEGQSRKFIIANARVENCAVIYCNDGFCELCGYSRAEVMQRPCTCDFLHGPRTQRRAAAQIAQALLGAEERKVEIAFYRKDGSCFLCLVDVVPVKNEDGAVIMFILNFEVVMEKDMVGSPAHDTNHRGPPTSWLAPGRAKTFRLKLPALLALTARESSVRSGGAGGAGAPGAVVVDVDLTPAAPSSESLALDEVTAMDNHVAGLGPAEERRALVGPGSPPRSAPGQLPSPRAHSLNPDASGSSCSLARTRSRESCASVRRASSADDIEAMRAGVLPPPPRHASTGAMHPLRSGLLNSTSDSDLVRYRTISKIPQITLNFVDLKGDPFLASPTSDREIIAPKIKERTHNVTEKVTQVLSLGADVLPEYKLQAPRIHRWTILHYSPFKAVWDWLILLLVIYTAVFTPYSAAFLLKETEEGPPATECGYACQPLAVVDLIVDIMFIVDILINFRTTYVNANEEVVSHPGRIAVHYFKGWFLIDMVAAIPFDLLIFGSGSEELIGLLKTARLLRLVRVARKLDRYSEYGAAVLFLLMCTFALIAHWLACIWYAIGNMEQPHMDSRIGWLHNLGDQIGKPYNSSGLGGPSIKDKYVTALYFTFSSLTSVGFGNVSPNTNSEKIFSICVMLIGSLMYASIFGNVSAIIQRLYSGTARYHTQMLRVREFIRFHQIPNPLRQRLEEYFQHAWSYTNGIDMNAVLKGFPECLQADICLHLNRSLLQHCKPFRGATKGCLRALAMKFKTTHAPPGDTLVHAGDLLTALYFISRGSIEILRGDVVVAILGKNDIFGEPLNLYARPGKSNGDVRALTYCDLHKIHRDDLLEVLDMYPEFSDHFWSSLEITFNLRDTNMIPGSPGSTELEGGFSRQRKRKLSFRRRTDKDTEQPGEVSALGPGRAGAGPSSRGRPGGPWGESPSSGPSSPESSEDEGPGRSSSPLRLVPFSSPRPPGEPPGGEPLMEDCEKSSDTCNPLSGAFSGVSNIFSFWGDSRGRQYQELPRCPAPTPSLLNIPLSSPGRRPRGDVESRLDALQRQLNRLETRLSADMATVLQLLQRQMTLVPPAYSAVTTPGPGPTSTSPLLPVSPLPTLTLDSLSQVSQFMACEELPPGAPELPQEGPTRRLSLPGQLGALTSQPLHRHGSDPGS
Assay: primary screen, population patch clamp on CHO cells stably expressing hERG; higher = less effect of the substance
About 14,000 (4.5%) of roughly 310,000 compounds showed an effect of 50% or more. The effect is printed as a negative number. Many of the other results were omitted from the sample, so strong results are more common in it than they were.
Field: hERG current change (%, negative = inhibition) at 10uM. Provide a value for each of the molecules that follow.
Numbers only, in %.

Solved cases below.
molecule="CCC1Sc2ccc(S(=O)(=O)CCC(=O)Nc3cc(C)ccn3)cc2NC1=O (centres unmarked)" system_tested="human ether-à-go-go-related gene (hERG) potassium channel (human, UniProt Q12809)" recorded_number=11.9
molecule=Cc1ccc(NC(=O)NCCN2CCCCC2)cc1 system_tested="human ether-à-go-go-related gene (hERG) potassium channel (human, UniProt Q12809)" recorded_number=-11
molecule=CC(C)(C)n1nc2c(c1NC(=O)COc1ccc(Cl)cc1)CS(=O)(=O)C2 system_tested="human ether-à-go-go-related gene (hERG) potassium channel (human, UniProt Q12809)" recorded_number=-46.5

Required: hERG current change (%, negative = inhibition) at 10uM, one value per molecule below.
1. COc1cc(C(=O)N2CCN(C/C=C/c3ccccc3)CC2)cc(OC)c1C
2. COc1cc(NC(=O)C23CC4CC(C2)CC(n2nnc(C)n2)(C4)C3)c(OC)cc1Cl
3. CC(C)CCOP(=O)(c1ccc(N(C)C)cc1)C(O)c1ccc(C(C)C)cc1 (centres unmarked)
4. O=C(NC(=S)Nc1ccc2nc[nH]c2c1)c1ccccc1
5. COc1ccccc1/C=C/CN1CCC(Oc2cc(C(=O)NC3CC3)ccc2OC)CC1

A.
1: -30.2; 2: 4.76; 3: 11.7; 4: 12.4; 5: -76.5
